// reported inhibition for each item listed
target: N-glycosylase/DNA lyase (Homo sapiens); details: Compound Concentration 10.0 uM, Hit No;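 further: OGG1 cleavage of a quenched duplex DNA oligonucleotide, coupled to APE1 for strand incision, read as fluorescence at 594 nm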
Description: Inhibition of OGG1 by quantifying inhibition of OGG1-mediated cleavage and dissociation of quenched duplex DNA oligonucleotides, measured as fluorescence at 594 nm. To generate a functional strand incision and increase turn-over this assay is coupled to APE1.
Field format: number, assumed %, no unit text.

Examples with their reported inhibition follow.
[
  {
    "compound": "CCNC(=O)N1CCCN(c2ccc(C(=O)NCCc3ccc(Cl)cc3Cl)cc2NC(=O)c2cccc(Cl)c2)CC1",
    "testedSystem": "N-glycosylase/DNA lyase (Homo sapiens)",
    "inhibition / %": -8.02
  },
  {
    "compound": "COc1cccc(OC)c1-c1cc(C(=O)NC2(C(=O)O)C3CC4CC(C3)CC2C4)nn1-c1ccnc2cc(Cl)ccc12 (stereo not given)",
    "testedSystem": "N-glycosylase/DNA lyase (Homo sapiens)",
    "inhibition / %": 23.9
  },
  {
    "compound": "CN([C@@H]1CCc2c(CC(=O)O)c3ccccc3n2C1)S(=O)(=O)c1ccc(F)cc1",
    "testedSystem": "N-glycosylase/DNA lyase (Homo sapiens)",
    "inhibition / %": 5.88
  },
  {
    "compound": "OCCn1cc(-c2cnc3nnn(Cc4ccc5ncccc5c4)c3n2)cn1",
    "testedSystem": "N-glycosylase/DNA lyase (Homo sapiens)",
    "inhibition / %": -5.86
  }
]

Turning to the following compound.
// sample `CCn1c(=O)c(C)cn(Cc2nnc(-c3ccc(F)c(OC)c3F)s2)c1=O` , its inhibition was 7.36

---

// reported inhibition for each item listed
target: Methyl-CpG-binding domain protein 4 (Homo sapiens) (UniProt O95243); conditions: Compound Concentration 10.0 uM, Hit No;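 further: MBD4 activity read as fluorescence at 594 nm from cleavage and release of a quenched duplex DNA oligonucleotide, with APE1 coupled to incise the strand and raise turnover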
Sequence (O95243 whole entry, the tested form may be a part): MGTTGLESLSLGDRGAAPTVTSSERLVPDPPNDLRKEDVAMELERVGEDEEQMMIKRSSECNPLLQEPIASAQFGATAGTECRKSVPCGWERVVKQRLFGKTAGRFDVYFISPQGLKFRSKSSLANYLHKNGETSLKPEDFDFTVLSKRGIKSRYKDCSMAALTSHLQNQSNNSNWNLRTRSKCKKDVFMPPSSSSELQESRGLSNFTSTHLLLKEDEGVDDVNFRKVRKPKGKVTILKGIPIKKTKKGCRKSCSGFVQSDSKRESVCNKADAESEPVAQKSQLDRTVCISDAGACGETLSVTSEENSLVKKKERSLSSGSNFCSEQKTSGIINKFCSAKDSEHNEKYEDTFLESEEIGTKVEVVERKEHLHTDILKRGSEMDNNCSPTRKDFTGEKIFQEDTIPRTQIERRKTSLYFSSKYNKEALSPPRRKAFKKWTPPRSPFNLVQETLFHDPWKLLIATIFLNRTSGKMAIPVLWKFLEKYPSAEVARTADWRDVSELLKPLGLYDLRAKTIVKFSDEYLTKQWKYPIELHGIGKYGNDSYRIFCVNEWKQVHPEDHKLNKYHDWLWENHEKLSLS
Description: Inhibition of MBD4 by quantifying inhibition of MBD4-mediated cleavage and dissociation of quenched duplex DNA oligonucleotides, measured as fluorescence at 594 nm. To generate a functional strand incision and increase turn-over this assay is coupled to APE1.
Answer as a quantity: numeral, then unit.

Examples with their reported inhibition follow.
[
  {
    "molecule": "CC(=O)Nc1ncc(CN2CCC[C@H](Cc3cc(C)nc(C)c3)C2)s1",
    "recordedMeasurement": "96.5%"
  },
  {
    "molecule": "COc1ccnc(N2CCC3(CCCN(Cc4c[nH]c5ccccc45)C3=O)CC2)n1",
    "recordedMeasurement": "-0.547%"
  },
  {
    "molecule": "CCOC(=O)c1ccc(C#Cc2ccc3c(c2)C(C)(C)CCS3)nc1",
    "recordedMeasurement": "50.8%"
  },
  {
    "molecule": "CCC1(C2=NCCN2)Cc2ccccc2O1 (configuration not stated)",
    "recordedMeasurement": "3.23%"
  },
  {
    "molecule": "COc1cc2nc(N3CCN(C(=O)COc4c(OC)cccc4C(C)C)CC3)nc(N)c2cc1OC",
    "recordedMeasurement": "-7.62%"
  }
]

Observed inhibition on Methyl-CpG-binding domain protein 4 (Homo sapiens) (UniProt O95243), entry `Cc1cc(C)c(S(=O)(=O)N(Cc2ccc(-c3cccc(S(C)(=O)=O)c3)cc2)Cc2ccc(C(F)(F)F)o2)c(C)c1` , equals 60.3%

Observed inhibition on Methyl-CpG-binding domain protein 4 (Homo sapiens) (UniProt O95243), entry `CC1(C)C(=O)C(C)(C)c2cc(C(=O)Nc3ccc(C(=O)O)cc3)ccc21` , equals 49.5%

Observed inhibition on Methyl-CpG-binding domain protein 4 (Homo sapiens) (UniProt O95243), entry `CC[C@@H]1C(=O)N(C)c2cnc(Nc3ccc(C(=O)NC4CCN(C)CC4)cc3OC)nc2N1C1CCCC1` , equals 33%

Observed inhibition on Methyl-CpG-binding domain protein 4 (Homo sapiens) (UniProt O95243), entry `CCCCC[C@H](O)/C=C/[C@H]1[C@H](O)CC(=O)[C@@H]1CCCCCCC(=O)O` , equals 3.22%

Observed inhibition on Methyl-CpG-binding domain protein 4 (Homo sapiens) (UniProt O95243), entry Clc1ccc(C2CC3CCC2N3)cn1 (configuration not stated) , equals 11.8%

Observed inhibition on Methyl-CpG-binding domain protein 4 (Homo sapiens) (UniProt O95243), entry `CCOC(=O)c1cnn(-c2ccc(NC(=O)C(Cl)=C(Cl)Cl)cc2)c1C(F)(F)F` , equals 1.57%

Observed inhibition on Methyl-CpG-binding domain protein 4 (Homo sapiens) (UniProt O95243), entry `Cc1cc(C(C)(C)C)c(O)c(C)c1CC1=NCCN1` , equals -7.05%

Observed inhibition on Methyl-CpG-binding domain protein 4 (Homo sapiens) (UniProt O95243), entry `CCCCc1nc(Cl)c(CO)n1Cc1ccc(-c2ccccc2-c2nnn[nH]2)cc1` , equals 1.95%

Observed inhibition on Methyl-CpG-binding domain protein 4 (Homo sapiens) (UniProt O95243), entry `O=C(O)c1ccc(-c2coc3ncc(-c4ccccc4)cc23)cc1Cl` , equals -2.05%

Observed inhibition on Methyl-CpG-binding domain protein 4 (Homo sapiens) (UniProt O95243), entry `CCC(F)(F)c1cc(N2CCC(S(C)(=O)=O)CC2)nc2sc(C(N)=O)c(N)c12` , equals 38.2%

Observed inhibition on Methyl-CpG-binding domain protein 4 (Homo sapiens) (UniProt O95243), entry NCC(O)c1ccc(O)cc1 (configuration not stated) , equals 41.7%

Observed inhibition on Methyl-CpG-binding domain protein 4 (Homo sapiens) (UniProt O95243), entry `CCCCC#Cc1nc(NC)c2ncn([C@@H]3O[C@H](CO)[C@@H](O)[C@H]3O)c2n1` , equals 0.324%
